Molecular target: HIV-1 protease (Human immunodeficiency virus type 1 group M subtype B)
Experiment: biochemical
Conditions: read-out: HIV-1 Protease % Inhib, dose 30.000 uM
Each entry below carries its reported inhibition at 30 µM.

- molecule: "CCCC(=O)Nc1cccc(C(c2c(O)c3c(oc2=O)CCCCCC3)C2CC2)c1 (stereo not shown)"
  units text: "%"
  inhibition at 30 µM: 100
- molecule: "O=c1oc2c(c(O)c1C(c1cccc(NS(=O)(=O)c3ccc(Br)cc3)c1)C1CC1)CCCCCC2 (stereo not shown)"
  units text: "%"
  inhibition at 30 µM: 104
- molecule: "O=c1oc2c(c(O)c1C(c1ccccc1)c1ccccc1)CCCCCC2"
  units text: "%"
  inhibition at 30 µM: 107
- molecule: "CCCC(c1cccc(NS(=O)(=O)c2cn(C)cn2)c1)c1c(O)c2c(oc1=O)CCCCCC2 (stereo not shown)"
  units text: "%"
  inhibition at 30 µM: 106
- molecule: "Cc1ccc(S(=O)(=O)Nc2cccc(C(c3c(O)c4c(oc3=O)CCCCCC4)C3CC3)c2)cc1 (stereo not shown)"
  units text: "%"
  inhibition at 30 µM: 115
- molecule: "O=c1oc2c(c(O)c1C(c1cccc(NS(=O)(=O)c3ccc(I)cc3)c1)C1CC1)CCCCCC2 (stereo not shown)"
  units text: "%"
  inhibition at 30 µM: 108
- molecule: "CS(=O)(=O)Nc1cccc(C(c2c(O)c3c(oc2=O)CCCCC3)C2CC2)c1 (stereo not shown)"
  units text: "%"
  inhibition at 30 µM: 90.2
- molecule: "O=c1oc2c(c(O)c1C(c1cccc(NS(=O)(=O)C=Cc3ccccc3)c1)C1CC1)CCCCCC2 (stereo not shown)"
  units text: "%"
  inhibition at 30 µM: 99
- molecule: "O=C(CO)Nc1cccc(S(=O)(=O)Nc2cccc(C(c3c(O)c4c(oc3=O)CCCCCC4)C3CC3)c2)c1 (stereo not shown)"
  units text: "%"
  inhibition at 30 µM: 108
- molecule: "O=c1oc2c(c(O)c1C(c1ccccc1)C1CC1)CCCCCC2CC1CC1 (stereo not shown)"
  units text: "%"
  inhibition at 30 µM: 109
- molecule: "Cc1cncc(S(=O)(=O)Nc2cccc(C(c3c(O)c4c(oc3=O)CCCCCC4)C3CC3)c2)c1 (stereo not shown)"
  units text: "%"
  inhibition at 30 µM: 81.4
- molecule: "Nc1cccc(C(c2c(O)c3c(oc2=O)CCCCCC3)C2CC2)c1 (stereo not shown)"
  units text: "%"
  inhibition at 30 µM: 102
- molecule: "CC(C)C(c1cccc(NS(=O)(=O)c2ccc(Cl)cc2)c1)c1c(O)c2c(oc1=O)CCCCCC2 (stereo not shown)"
  units text: "%"
  inhibition at 30 µM: 105
- molecule: "O=c1oc2c(c(O)c1C(c1cccc(NS(=O)(=O)Cc3ccccc3)c1)C1CC1)CCCCCC2 (stereo not shown)"
  units text: "%"
  inhibition at 30 µM: 118
- molecule: "CCCS(=O)(=O)Nc1cccc(C(c2c(O)c3c(oc2=O)CCCCCC3)C2CC2)c1 (stereo not shown)"
  units text: "%"
  inhibition at 30 µM: 117
- molecule: "COCC1CCCCCc2c1oc(=O)c(C(c1ccccc1)C1CC1)c2O (stereo not shown)"
  units text: "%"
  inhibition at 30 µM: 104
